Tested on: morningglory
Test: Test B pre/postemergence morningglory
Format: in vivo, Ipomoea hederacea
Conditions: Rate 250 g/ha, Postemergence; scale of 0 to 10 where 0 is no effect and 10 is complete control
Item-by-item account of Plant response rating, Morningglory

# compound, Plant response rating, Morningglory
measured = [
    ("CC(C)=CCn1c(=O)on(C(=O)N(c2ccc(Cl)cc2)C(C)C)c1=O [Compound 545]", 10),
    ("CC(Cl)=CCn1c(=O)on(C(=O)N(c2ccccc2)C(C)C)c1=O [Compound 573]", 10),
    ("C=CCn1c(=O)on(C(=O)N(c2ccc(F)cc2)C(C)C(=O)OCC)c1=O (stereo not drawn) [Compound 279]", 2),
    ("COCn1c(=O)on(C(=O)N(c2ccc(Cl)cc2)C(C)C)c1=O [Compound 533]", 7),
    ("Cc1ccccc1-n1c(=O)on(C(=O)N(c2ccc(C(C)(C)C)cc2)C(C)C)c1=O [Compound 270]", 0),
    ("CC(C)N(C(=O)n1oc(=O)n(CCCN(C)C)c1=O)c1ccc(F)cc1 [Compound 323]", 2),
]
